MIC values for the compounds below.
Tested on: Salmonella enterica subsp. enterica serovar Typhimurium C77-31

>  <Compound>
CC[C@H](C)[C@H](NC(=O)[C@H](CCCCN)NC(=O)[C@H](C)NC(=O)[C@H](C)N)C(=O)N[C@H](C(=O)N[C@@H](CC(C)C)C(=O)N[C@@H](CC(N)=O)C(=O)N1CCC[C@H]1C(=O)N[C@@H](CCCCN)C(=O)N[C@@H](Cc1ccccc1)C(=O)N[C@@H](CCCN=C(N)N)C(=O)N[C@H]1CSSC[C@@H](C(N)=O)NC(=O)[C@H](Cc2ccccc2)NC(=O)[C@H](C)NC(=O)[C@H](C)NC(=O)[C@H](CCCCN)NC1=O)[C@@H](C)CC [AAKIILNPKFRCKAAFC]

>  <Target or system>
Salmonella enterica subsp. enterica serovar Typhimurium C77-31

>  <MIC>
≥ 128 µM

$$$$
>  <Compound>
CC[C@H](C)[C@H](NC(=O)[C@H](CCCCN)NC(=O)[C@H](CCCCN)NC(=O)[C@H](CC(C)C)NC(=O)[C@H](CCCN=C(N)N)NC(=O)[C@H](CCCCN)NC(=O)[C@H](CCCN=C(N)N)NC(=O)[C@H](CCCCN)NC(=O)[C@H](CCCCN)NC(=O)[C@H](CCCCN)NC(=O)[C@H](CCCN=C(N)N)NC(=O)[C@H](CC(C)C)NC(=O)[C@H](CCCN=C(N)N)NC(=O)[C@H](CCCN=C(N)N)NC(=O)[C@H](Cc1ccccc1)NC(=O)[C@@H](N)CCCN=C(N)N)C(N)=O [RFRRLRKKKRKRLKKI]

>  <Target or system>
Salmonella enterica subsp. enterica serovar Typhimurium C77-31

>  <MIC>
≥ 256 µM

$$$$
>  <Compound>
CC[C@H](C)[C@H](NC(=O)[C@H](CCCCN)NC(=O)[C@H](CCCCN)NC(=O)[C@H](Cc1ccccc1)NC(=O)[C@H](CC(C)C)NC(=O)[C@H](CCCCN)NC(=O)[C@H](Cc1c[nH]c2ccccc12)NC(=O)[C@@H](N)CCCCN)C(=O)O [KWKLFKKI]

>  <Target or system>
Salmonella enterica subsp. enterica serovar Typhimurium C77-31

>  <MIC>
≥ 128 µM

$$$$
>  <Compound>
CC(C)C[C@H](NC(=O)[C@H](CCCN=C(N)N)NC(=O)[C@@H](NC(=O)[C@H](CCCN=C(N)N)NC(=O)[C@@H]1CCCN1C(=O)[C@H](CCCN=C(N)N)NC(=O)[C@H](CCCCN)NC(=O)[C@@H](N)CCC(N)=O)C(C)C)C(=O)N[C@@H](CO)C(=O)N[C@@H](C)C(=O)O [QKRPRVRLSA]

>  <Target or system>
Salmonella enterica subsp. enterica serovar Typhimurium C77-31

>  <MIC>
≥ 128 µM

$$$$

---

Target or system Escherichia coli ATCC 25922: recorded MIC listed per item.

>  <Molecule smiles>
C[C@H](NC(=O)[C@H](C)NC(=O)[C@H](CCCCN)NC(=O)[C@H](CCCCN)NC(=O)[C@@H](N)CCCCN)C(=O)N[C@@H](C)C(=O)N[C@@H](Cc1ccccc1)C(=O)N[C@@H](C)C(=O)N[C@@H](C)C(=O)N[C@@H](Cc1c[nH]c2ccccc12)C(=O)N[C@@H](C)C(=O)N[C@@H](C)C(=O)N[C@@H](Cc1ccccc1)C(=O)N[C@@H](C)C(=O)N[C@@H](CCCCN)C(=O)N[C@@H](CCCCN)C(=O)N[C@@H](CCCCN)C(N)=O

>  <MIC>
> 32 µM

$$$$
>  <Molecule smiles>
CC[C@H](C)[C@H](NC(=O)[C@H](Cc1ccc(O)cc1)NC(=O)[C@H](CCC(N)=O)NC(=O)[C@H](CC(C)C)NC(=O)[C@H](C)N)C(=O)N[C@@H](CCCCN)C(=O)N[C@@H](CC(C)C)C(=O)N[C@@H](CC(C)C)C(=O)N[C@@H](CCCCN)C(=O)N[C@@H](CCC(=O)O)C(N)=O

>  <MIC>
> 100 µM

$$$$
>  <Molecule smiles>
CC(=O)N[C@@H](CCCCN)C(=O)N[C@@H](CC(C)C)C(=O)N[C@@H](CC(C)C)C(=O)N[C@@H](CCCCN)C(=O)N[C@@H](CC(C)C)C(=O)N1CCC[C@H]1C(=O)N[C@@H](CCCCN)C(=O)N[C@@H](CCCCN)C(=O)N[C@@H](CC(C)C)C(=O)N[C@@H](CC(C)C)C(=O)N[C@@H](CCCCN)C(=O)N[C@@H](CC(C)C)C(=O)N[C@@H](CC(C)C)C(=O)N[C@@H](CCCCN)C(N)=O

>  <MIC>
> 80 µM

$$$$
>  <Molecule smiles>
CC(C)[C@H](NC(=O)[C@H](Cc1ccc(O)cc1)NC(=O)[C@H](CO)NC(=O)[C@H](CCCCN)NC(=O)[C@@H](N)CCCCN)C(=O)N[C@@H](CCCN=C(N)N)C(=O)N[C@@H](CCCN=C(N)N)C(=O)N[C@@H](Cc1c[nH]c2ccccc12)C(=O)N[C@@H](CCCN=C(N)N)C(=O)N[C@@H](CO)C(N)=O

>  <MIC>
> 100 µM

$$$$
>  <Molecule smiles>
CC[C@H](C)[C@H](NC(=O)[C@H](C)NC(=O)[C@H](CO)NC(=O)[C@@H](NC(=O)[C@H](C)NC(=O)[C@@H](NC(=O)[C@@H]1CCCN1C(=O)[C@@H](NC(=O)[C@H](CCSC)NC(=O)CNC(=O)[C@H](CC(C)C)NC(=O)[C@@H](N)CC(C)C)[C@@H](C)CC)C(C)C)[C@@H](C)CC)C(=O)N[C@@H](CO)C(=O)N[C@@H](C)C(=O)N[C@@H](CC(C)C)C(=O)N[C@@H](CO)C(=O)N[C@@H](CCCCN)C(=O)N[C@@H](CC(C)C)C(N)=O

>  <MIC>
> 100 µM

$$$$
